B1: GFOD1 (parent)
chain: SDDFCTFQMVLEGGVCCTVTLNFN

# Variants of: B1
# ASSAY COMMENT: protein stability index of a GFP-peptide fusion (GPS, HEK-293T) (PSI 1-6); higher = more stable;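 note: lentivirally expressed fusions sorted by FACS into six bins by GFP to DsRed ratio, PSI derived from sequencing read proportions per bin multiplied by bin number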
# EXPERIMENTAL CONDITIONS: c terminus: a fixed tail appended
PARAMETER MEASURED: protein stability index
Form: value (number only, do not type unit).

Look up protein stability index of "SDDFCTFLMVLEGGVCCTVTLNFN" and report it.
3.02

Look up protein stability index of "SDDFCTFQMVLEEGVCCTVTLNFN" and report it.
2.48

Look up protein stability index of "SDDVCTFQMVLEGGVCCTVTLNFN" and report it.
2.91

Look up protein stability index of "SDDFCTFQMVLEGGVNCTVTLNFN" and report it.
2.89

Look up protein stability index of "SDDFCTFQMVLEGGVKCTVTLNFN" and report it.
2.95
